Listed next: entries and their corresponding AC50.
System: Cholecystokinin receptor type A (Homo sapiens, UniProt P32238); note: assay procedure not described here
Sequence (P32238 whole entry): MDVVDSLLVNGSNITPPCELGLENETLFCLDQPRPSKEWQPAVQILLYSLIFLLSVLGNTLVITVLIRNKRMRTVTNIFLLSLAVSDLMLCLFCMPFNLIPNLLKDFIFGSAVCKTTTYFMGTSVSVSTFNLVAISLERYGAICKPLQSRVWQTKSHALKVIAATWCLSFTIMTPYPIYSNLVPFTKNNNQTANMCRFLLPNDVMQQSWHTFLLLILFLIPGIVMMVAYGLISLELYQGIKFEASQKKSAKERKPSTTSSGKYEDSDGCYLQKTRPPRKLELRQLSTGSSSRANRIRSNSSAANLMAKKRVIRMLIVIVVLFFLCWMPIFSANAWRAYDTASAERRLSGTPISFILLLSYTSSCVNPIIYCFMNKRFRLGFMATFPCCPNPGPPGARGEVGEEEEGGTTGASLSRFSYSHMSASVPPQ
Reported Endpoint: AC50

- Molecule: "Cc1cc(C)nc(NS(=O)(=O)c2ccc(N)cc2)n1"
  Observed Result: "> 10 µM"
- Molecule: "CCOC(=O)C(C)(C)Oc1ccc(Cl)cc1 [CLOFIBRATE]"
  Observed Result: "> 30 µM"
- Molecule: "CC(C)[C@@H](C)/C=C/[C@@H](C)[C@H]1CC[C@H]2/C(=C/C=C3\\C[C@@H](O)CC[C@@H]3C)CCC[C@]12C [DIHYDROTACHYSTEROL]"
  Observed Result: "> 10 µM"
- Molecule: "CO/N=C(\\C(=O)N[C@@H]1C(=O)N2C(C(=O)O)=CCS[C@H]12)c1csc(N)n1"
  Observed Result: "> 30 µM"
- Molecule: "CN(C)Cc1nnc2n1-c1ccc(Cl)cc1C(c1ccccc1)=NC2"
  Observed Result: "> 10 µM"
- Molecule: "O=C(O)COCCN1CCN(C(c2ccccc2)c2ccc(Cl)cc2)CC1 (configuration not stated)"
  Observed Result: "> 30 µM"
- Molecule: "CC(=O)c1ccc(S(=O)(=O)NC(=O)NC2CCCCC2)cc1 [ACETOHEXAMIDE]"
  Observed Result: "> 10 µM"
- Molecule: "C[N+]12CCC(CC1)C(OC(=O)C(O)(c1ccccc1)c1ccccc1)C2 (configuration not stated)"
  Observed Result: "> 30 µM"
- Molecule: "O=C1Cc2cc(CCN3CCN(c4nsc5ccccc45)CC3)c(Cl)cc2N1"
  Observed Result: "> 30 µM"
- Molecule: "COC(=O)[C@H]1[C@H]2C[C@@H]3c4[nH]c5cc(OC)ccc5c4CCN3C[C@H]2C[C@@H](OC(=O)c2cc(OC)c(OC)c(OC)c2)[C@@H]1OC"
  Observed Result: "> 10 µM"
- Molecule: "CCCc1nc2c(C)cc(-c3nc4ccccc4n3C)cc2n1Cc1ccc(-c2ccccc2C(=O)O)cc1"
  Observed Result: "2.43 µM"
- Molecule: "O=C(c1cc(Cc2n[nH]c(=O)c3ccccc23)ccc1F)N1CCN(C(=O)C2CC2)CC1"
  Observed Result: "> 30 µM"
- Molecule: "Cc1nnc(SCC2=C(C(=O)O)N3C(=O)[C@@H](NC(=O)Cn4cnnn4)[C@H]3SC2)s1"
  Observed Result: "> 300 µM"
- Molecule: "CCN1CCCC1CNC(=O)c1cc(S(=O)(=O)CC)ccc1OC (configuration not stated) [SULTOPRIDE]"
  Observed Result: "> 30 µM"
- Molecule: "CCCN(CCC)S(=O)(=O)c1ccc(C(=O)O)cc1"
  Observed Result: "> 10 µM"
- Molecule: "Cc1cccc(C)c1NC(=O)CC12CCCN1CCC2 [PILSICAINIDE]"
  Observed Result: "> 30 µM"
- Molecule: "COc1cc(C(=O)OCc2cccc(COC(=O)c3cc(OC)c(OC)c(OC)c3)n2)cc(OC)c1OC"
  Observed Result: "> 30 µM"

Where these numbers come from: ChEMBL document CHEMBL5291721
